Ki for assorted compounds
target: Human LATS2 catalytic domain (Homo sapiens (Human), UniProt Q9NRM7); assay: LATS2 High ATP HTRF Assay; type: biochemical; details: no asterisk: LATS2 High ATP HTRF Assay, 5000 μM ATP, 0.05 nM LATS2
Sequence (Q9NRM7 553-1088): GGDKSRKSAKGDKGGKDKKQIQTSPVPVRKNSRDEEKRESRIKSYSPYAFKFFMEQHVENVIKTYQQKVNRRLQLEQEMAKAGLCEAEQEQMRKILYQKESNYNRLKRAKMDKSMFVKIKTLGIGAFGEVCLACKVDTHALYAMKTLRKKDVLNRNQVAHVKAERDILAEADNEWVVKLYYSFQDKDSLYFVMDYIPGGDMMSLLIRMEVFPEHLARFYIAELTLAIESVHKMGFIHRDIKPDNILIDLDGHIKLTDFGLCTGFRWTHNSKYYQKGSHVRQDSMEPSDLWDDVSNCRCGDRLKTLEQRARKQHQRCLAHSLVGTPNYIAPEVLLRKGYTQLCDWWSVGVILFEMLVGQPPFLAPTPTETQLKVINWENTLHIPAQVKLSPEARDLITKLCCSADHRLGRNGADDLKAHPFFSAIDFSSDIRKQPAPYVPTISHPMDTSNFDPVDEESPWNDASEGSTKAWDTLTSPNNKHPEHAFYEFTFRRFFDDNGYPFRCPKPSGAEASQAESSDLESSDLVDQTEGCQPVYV
Sequence (Q7L9L4 whole entry partner, the tested form may be a part): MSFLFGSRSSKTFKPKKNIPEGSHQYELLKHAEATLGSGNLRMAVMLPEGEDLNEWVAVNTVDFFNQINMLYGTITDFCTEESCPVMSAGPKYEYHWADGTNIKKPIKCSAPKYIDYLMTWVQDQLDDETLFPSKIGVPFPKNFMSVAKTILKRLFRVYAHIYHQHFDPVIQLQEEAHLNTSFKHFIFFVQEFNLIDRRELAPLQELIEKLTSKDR

COMPOUND | Ki (nM)
c1cc(-c2nc(N3CCC4(CC3)CCN(C3CCC3)C4)c3ccncc3n2)ccn1 [Compound 131] | 0.29
CN1CCC2(CCN(c3nc(-c4ccncc4)nc4cncc(OC5COC5)c34)CC2)C1 [Compound 269] | 0.034
OCCCN1CCC2(CCN(c3nc(-c4ccncc4)nc4cnccc34)CC2)C1 [Compound 120] | 0.17
Cc1n[nH]cc1-c1nc(N2CCC3(CCN(C[C@@H](C)O)C3)CC2)c2ccncc2n1 (single isomer, unassigned) [Compound 145] | 0.039

---

test system: TAZ nuclear translocation in SW1990 cells; assay: TAZ Nuclear Translocation Assay; type: cell-based; settings: Homo sapiens, 4 hours

COMPOUND | EC50 [µM]
Cc1n[nH]cc1-c1nc(N2CCC3(CCN(CCO)C3)CC2)c2ccncc2n1 | 2.7
COc1cncc2nc(-c3c[nH]nc3C)nc(N3CCC4(CCN(CC(C)(C)O)C4)CC3)c12 | 0.24
FCC1CC2(CCN(c3nc(-c4ccncc4)nc4cnccc34)CC2)CN1 (racemic) | 0.49
COCCOc1cncc2nc(-c3ccncc3)nc(N3CCC4(CCNC4)CC3)c12 | 1.2

---

tested on: TAZ nuclear translocation in SW1990 cells; assay: TAZ Nuclear Translocation Assay; type: cell-based; details: Homo sapiens, 4 hours
pEC50: −log10 of the molar value.

COMPOUND | READOUT_QUALIFIER | pEC50
OC[C@H]1CC2(CCN(c3nc(-c4ccncc4)nc4cnccc34)CC2)CN1 (single isomer, unassigned) | = | 5.85
FC1(F)CNCC12CCN(c1nc(-c3ccncc3)nc3cnccc13)CC2 | < | 5.00
Cc1n[nH]cc1-c1nc(N2CCC3(CCN(C)C3)CC2)c2cc(Cc3ccccc3)ncc2n1 | = | 6.89
COc1[nH]ncc1-c1nc(N2CCC3(CCNC3)CC2)c2ccncc2n1 | < | 5.00
C[C@H](CO)N1CCC2(CCN(c3nc(-c4ccncc4)nc4cnccc34)CC2)C1 (single isomer, unassigned) | = | 6.13

---

system: TAZ nuclear translocation in SW1990 cells; assay: TAZ Nuclear Translocation Assay; assay type: cell-based; settings: Homo sapiens, 4 hours
pEC50: −log10 of the molar value.
READOUT: pEC50

COMPOUND | READOUT | READOUT_QUALIFIER | TEST_RESULT
OC1(CN2CCC3(CCN(c4nc(-c5ccncc5)nc5cnccc45)CC3)C2)CCC1 | pEC50 | = | 6.77
CC(=O)NCCN1CCC2(CCN(c3nc(-c4ccncc4)nc4cnccc34)CC2)C1 | pEC50 | = | 5.68
COCCN1CCC2(CCN(c3nc(-c4ccncc4)nc4cnccc34)CC2)C1 | pEC50 | = | 6.52
CN1CCC2(CCN(c3nc(-c4ccncc4)nc4cncc(O)c34)CC2)C1 | pEC50 | < | 5.00
OCc1cncc2nc(-c3ccncc3)nc(N3CCC4(CCNC4)CC3)c12 | pEC50 | < | 5.00
NC(=O)CN1CCC2(CCN(c3nc(-c4ccncc4)nc4cnccc34)CC2)C1 | pEC50 | = | 5.92
CN(C)c1cncc2nc(-c3ccncc3)nc(N3CCC4(CCNC4)CC3)c12 | pEC50 | = | 5.72
CC(C)(CO)N1CCC2(CCN(c3nc(-c4ccncc4)nc4cnccc34)CC2)C1 | pEC50 | = | 6.38
CN1CCC2(CCN(c3nc(-c4ccncc4)nc4cnccc34)CC2)C1 | pEC50 | = | 6.46
FC(F)Oc1cncc2nc(-c3ccncc3)nc(N3CCC4(CCNC4)CC3)c12 | pEC50 | = | 6.74
Cc1[nH]ncc1-c1nc(N2CCC3(CCNC3)CC2)c2c(F)cncc2n1 | pEC50 | < | 5.00
N#CCCN1CCC2(CCN(c3nc(-c4ccncc4)nc4cnccc34)CC2)C1 | pEC50 | = | 5.49
c1cc2c(N3CCC4(CCNC4)CC3)nc(-c3ccnc4[nH]ccc34)nc2cn1 | pEC50 | = | 5.34
CN1CCC2(CCN(c3nc(-c4ccncc4)nc4c(Cl)nccc34)CC2)C1 | pEC50 | = | 5.96
CN(C)S(=O)(=O)CCN1CCC2(CCN(c3nc(-c4ccncc4)nc4cnccc34)CC2)C1 | pEC50 | = | 5.82
c1cc(-c2cc3cnccc3c(N3CCC4(CCNC4)CC3)n2)ccn1 | pEC50 | = | 5.21
Cc1[nH]ncc1-c1nc(N2CCC3(CCN(CC(F)F)C3)CC2)c2ccncc2n1 | pEC50 | = | 6.18
OC[C@@H]1CC2(CCN(c3nc(-c4ccncc4)nc4cnccc34)CC2)CN1 (single isomer, unassigned) | pEC50 | = | 5.89
FC(F)(F)CN1CCC2(CCN(c3nc(-c4ccncc4)nc4cnccc34)CC2)C1 | pEC50 | = | 5.64
CCN1CCC2(CCN(c3nc(-c4ccncc4)nc4cnccc34)CC2)C1 | pEC50 | = | 6.23
CCN1CCC2(CCN(c3nc(-c4cn[nH]c4C)nc4cnccc34)CC2)C1 | pEC50 | = | 6.33
Cc1cc2c(N3CCC4(CCNC4)CC3)nc(-c3ccncc3)nc2cn1 | pEC50 | = | 5.51
c1cc(-c2nc(N3CCC4(CCN(c5cn[nH]c5)C4)CC3)c3ccncc3n2)ccn1 | pEC50 | < | 5.00
O[C@@H]1CC[C@H](N2CCC3(CCN(c4nc(-c5ccncc5)nc5cnccc45)CC3)C2)C1 (single isomer, unassigned) | pEC50 | = | 6.42
COc1cncc2nc(-c3ccncc3)nc(N3CCC4(CCN(CC5COC5)C4)CC3)c12 | pEC50 | = | 6.85
Fc1cnccc1-c1nc(N2CCC3(CCNC3)CC2)c2ccncc2n1 | pEC50 | = | 5.57
c1cc(-c2nc(N3CCC4(CC3)CCN(C3CCOCC3)C4)c3ccncc3n2)ccn1 | pEC50 | = | 6.00
Oc1cncc2nc(-c3ccncc3)nc(N3CCC4(CCNC4)CC3)c12 | pEC50 | < | 5.00
CS(=O)(=O)NCCN1CCC2(CCN(c3nc(-c4ccncc4)nc4cnccc34)CC2)C1 | pEC50 | = | 6.02
C[C@@H](O)CN1CCC2(CCN(c3nc(-c4ccncc4)nc4cnccc34)CC2)C1 (single isomer, unassigned) | pEC50 | = | 6.51
CN1CCC2(CCN(c3nc(-c4ccncc4)nc4c(C#CC(C)(C)O)nccc34)CC2)C1 | pEC50 | = | 6.51
Cc1cncc2nc(-c3ccncc3)nc(N3CCC4(CCNC4)CC3)c12 | pEC50 | = | 5.33
COc1cnc(Cl)c2nc(-c3ccncc3)nc(N3CCC4(CCN(C)C4)CC3)c12 | pEC50 | = | 6.51
